Exercise: for every item that follows, state its recorded z-score.
# experimental-details: E. coli growth modulation, two-sided OD650, primary screen, E. coli filamentation project, strain DRC41, 24 h (AID 1093);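 note: MC1000 strain lacking acrAB efflux and sulA so SOS filamentation is blocked; test concentration not given here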
# details: OD650, 24 h, higher = more signal, called active from +8 up or from −8 down
Calls of active or inactive are those of the source.

C=CCC(OC(C)=O)[C@@H]1[C@@H](N(Cc2cccc3ccccc23)C(=O)c2ccc(-c3ccccc3)cc2)c2cc(OCCCO)ccc2N1C(=O)Cc1ccc(OC)cc1 (some centres not stated) | 0.457 (inactive)
O=C1[C@H]2C=C(Br)[C@H](C[C@@H]2c2ccccc2)[C@@]12CO2 | -0.779 (inactive)
COC(=O)[C@@]1(Cc2ccc(OC)cc2)[C@H]2c3cc(C(=O)N4CCCC4)n(Cc4ccsc4Br)c3C[C@H]2CN1C(=O)c1ccccc1 | -0.29 (inactive)
CN1C(=O)C2C=CC(C(O)Cc3ccccc3)N(Nc3ccccc3)C2C1=O (configuration not stated) | -1.05 (inactive)
CN1C(=O)C2C=CC(C(O)c3ccc(-c4ccccc4)s3)N(N(c3ccccc3)c3ccccc3)C2C1=O (configuration not stated) | -0.422 (inactive)

Batch request: z-score for each of the following molecules.
1. C=CC[C@@]1(C(=O)NCc2ccccc2)N=C(c2ccc(OCCCO)cc2)O[C@@H]1c1ccccc1N=[N+]=[N-]
2. COc1ccc(C(=O)Nc2ccc(CN3C(=O)[C@@]4(O[C@@H](CCO)[C@H]([Si](C)(C)c5ccc(OC)cc5)[C@H]4C)c4ccccc43)cc2)cc1
3. COCCOC(=O)N1C(=O)[C@@]2(c3cc(C#CC4=CCCCC4)ccc31)[C@H](c1ccc(O)cc1)N1[C@H](c3ccccc3)[C@H](c3ccccc3)OC(=O)[C@H]1[C@@H]2C(N)=O
4. COc1ccc([Si](C)(C)[C@H]2[C@H](CC(=O)N3CCC[C@H]3CO)O[C@@]3(C(=O)N(Cc4cccc(N5C(=O)c6cccc7cccc5c67)c4)c4ccccc43)[C@@H]2C)cc1

Result:
1. 0.266 (inactive)
2. 0.0243 (inactive)
3. -0.603 (inactive)
4. -0.0831 (inactive)

Batch request: z-score for each of the following molecules.
1. C=CCOC(=O)[C@H]1[C@@H]2C(=O)O[C@@H](c3ccccc3)[C@@H](c3ccccc3)N2[C@@H](c2ccc(OCCOC(=O)[C@H]3C[C@H]4C(=O)N5CCC[C@H]5C(=O)N4[C@H]3c3ccc(O)cc3)cc2)[C@]12C(=O)Nc1ccccc12
2. O=C1NC(=O)C2C1C=CC(C(O)Cc1ccccc1)N2Nc1ccc(Cl)cc1Cl (configuration not stated)
3. COC(=O)[C@@]1(Cc2ccccc2)[C@H]2c3cc(C(=O)N4CCCC4)n(Cc4cccc5ccccc45)c3C[C@H]2CN1C(=O)c1ccccc1
4. C=CCOC(=O)[C@@H]1[C@H]2C(=O)O[C@H](c3ccccc3)[C@H](c3ccccc3)N2[C@H](c2ccc(OCCOC(=O)[C@@H]3C[C@@H]4C(=O)N[C@@H](CCCC[N+](C)(C)C)C(=O)N4[C@@H]3c3cccc(OCCO)c3)cc2)[C@@]12C(=O)Nc1ccc(I)cc12
5. C=CCC(OC(C)=O)[C@@H]1[C@@H](N(Cc2ccc(-c3cccc(C(F)(F)F)c3)o2)C(=O)c2ccc(-c3ccccc3)cc2)c2cc(OCCCO)ccc2N1C(=O)c1ccc(-c2ccccc2)cc1 (some centres not stated)
6. CC(C)C[C@@H]1NC(=O)[C@H]2C[C@@H](C(=O)NCCCCCCN(C)C)[C@@H](c3ccc(O)cc3)N2C1=O
7. CC1(C)[C@@H]2CC(C(O)C3C=CC4C(=O)N(c5ccccc5)C(=O)C4N3Nc3ccccc3)=C[C@H]1C2 (some centres not stated)

Result:
1: -0.92 (inactive); 2: 0.177 (inactive); 3: -0.395 (inactive); 4: -0.674 (inactive); 5: -0.801 (inactive); 6: -0.613 (inactive); 7: -0.936 (inactive)

Batch request: z-score for each of the following molecules.
1. CCCCCN1CC=CC23O[C@@H]4/C=C\CCCOC(=O)C4[C@H]2C(=O)N(C(CO)C(C)C)[C@@H]3C1=O (some centres not stated)
2. CN(C)CCCC[C@@H]1NC(=O)[C@H]2C[C@@H](C(=O)NCCCCCNC(=O)CS)[C@@H](c3cccc(OCCO)c3)N2C1=O
3. COC(=O)[C@@]1(Cc2ccccc2)[C@H]2c3cc(C(=O)N4CCCC4)n(CC4CC4)c3C[C@H]2CN1C(=O)c1ccccc1
4. C=CCNC(=O)[C@H]1[C@@H]2C(=O)O[C@@H](c3ccccc3)[C@@H](c3ccccc3)N2[C@@H](c2ccc(OCCO)cc2)[C@]12C(=O)Nc1ccc(C#CC3=CCCCC3)cc12

Result:
1.65 (inactive)
-0.328 (inactive)
-0.887 (inactive)
1.53 (inactive)

Batch request: z-score for each of the following molecules.
1. [N-]=[N+]=Nc1ccccc1[C@H]1OC(c2ccc(OCCCO)cc2)=N[C@@]1(Cc1ccccc1)C(=O)O
2. [N-]=[N+]=NCc1ccccc1[C@H]1OC(c2ccc(OCCCO)cc2)=N[C@@]1(Cc1ccccc1)C(=O)NCc1ccccc1
3. CN1C(=O)C2C=CC(C(O)c3ccccc3)N(Nc3ccccc3)C2C1=O (configuration not stated)
4. CC1CC/C=C\[C@H]2OC34C=CCN(c5ccc(Cl)cc5)C(=O)[C@H]3N(CCO)C(=O)[C@]4(C)C2C(=O)O1 (some centres not stated)
5. CC(C)(C)OC(=O)CC[C@@]1(C(=O)NCCN2CCOCC2)N=C(c2ccc(OCCCO)cc2)O[C@@H]1c1ccccc1N=[N+]=[N-]
6. [N-]=[N+]=Nc1ccccc1C[C@]1(C(=O)NCC(O)CO)N=C(c2ccc(OCCCO)cc2)O[C@H]1c1ccccc1N=[N+]=[N-] (some centres not stated)
7. CCC(CC)C(O)C1C=CC2C(=O)N(C)C(=O)C2N1Nc1ccccc1 (configuration not stated)

Result:
["0.355 (inactive)", "0.84 (inactive)", "-1.79 (inactive)", "0.613 (inactive)", "-0.115 (inactive)", "0.774 (inactive)", "0.103 (inactive)"]

---

# experimental-details: HepG2 liver cancer cell viability effects, profiling panel, resazurin fluorescence, 24 h, PK04 Diversity Set (AID 1172); note: test concentration not given here
# details: higher = more signal
Output MET for z-score not less than 0.4; output NOT MET otherwise.

Reference set, count: 6
CC(C)C(=C=CC[C@@H](O)c1ccccc1OCCO)CCO | MET
CC(C)N1C(=O)c2ccccc2[C@](C)(C(=O)NCc2ccccc2)[C@@H]1c1ccc(CO)cc1 | NOT MET
O=C1C[C@]2(c3ccc([N+](=O)[O-])cc3)C(=O)N(CCN3CCOCC3)c3cc(CO)ccc3[C@H]2N1C1CCCCC1 | NOT MET
COCCOC(=O)N1C(=O)[C@@]2(c3cc(C#CC4=CCCCC4)ccc31)[C@H](C(=O)Nc1nc3ccccc3s1)[C@H]1C(=O)O[C@H](c3ccccc3)[C@H](c3ccccc3)N1[C@@H]2c1ccccc1OCCO | MET
C=CCNC(=O)[C@H]1[C@@H]2C(=O)O[C@@H](c3ccccc3)[C@@H](c3ccccc3)N2[C@@H](c2ccc(OCCO)cc2)[C@]12C(=O)Nc1ccc(C#CC3=CCCCC3)cc12 | MET
COc1ccc(C(O)C2C=CC3C(=O)N(C)C(=O)C3N2N2CCCCC2)c2ccccc12 (configuration not stated) | NOT MET

We next turn to a different molecule, shown below.
Request: Assess whether reported z-score for CC(C)(C)OC(=O)CC[C@@]1(C(N)=O)N=C(c2ccc(OCCCO)cc2)O[C@@H]1c1ccccc1 sits at 0.4 or higher.
Result: NOT MET

---

Exercise: for every item that follows, state its recorded composite z-score.
# system-name: Fibroblast growth factor 2 (Homo sapiens)
# experimental-details: FGF2 binders on small-molecule microarrays, primary screen, biochemical, small-molecule microarray, 635/667 nm fluorescence (AID 1133)
# details: small-molecule microarray binding, FGF2, fluorescence 635/667; higher = more signal
Give bare numbers.

// solved cases for composite z-score follow
CCOC(=O)C[C@H]1[C@H](OC(=O)Cc2ccc3c(c2)OCO3)[C@@H](NC(=O)c2ccc(-c3ccccc3)cc2)c2cc(OCCCO)ccc2N1C(=O)Cc1ccc(OC)cc1 | 0.28
CN1C(=O)C2C=CC(C(O)c3ccc(-c4ccccc4)s3)N(N(c3ccccc3)c3ccccc3)C2C1=O (configuration not stated) | -0.314
COc1cc2c(cc1OC)CN(C(=O)[C@H]1[C@@H]3C(=O)O[C@@H](c4ccccc4)[C@@H](c4ccccc4)N3[C@@H](c3ccc(O)cc3)[C@]13C(=O)Nc1ccc(C#CCNC(N)=O)cc13)CC2 | 0.967
CC(C)(C)OC(=O)CC[C@]1(C(=O)O)N=C(c2ccc(OCCCO)cc2)O[C@H]1c1ccccc1N=[N+]=[N-] | 0.0606
CC1CC/C=C\[C@H]2OC34C=CCN(Cn5nnc6ccccc65)C(=O)[C@H]3N(C(CO)C(C)C)C(=O)[C@@H]4C2C(=O)O1 (some centres not stated) | -0.464

Batch request: composite z-score for each of the following compounds.
1. C=CCOC(=O)[C@H]1[C@@H]2C(=O)O[C@@H](c3ccccc3)[C@@H](c3ccccc3)N2[C@@H](c2ccc(OCCOC(=O)[C@@H]3C[C@@H]4C(=O)N5CCC[C@H]5C(=O)N4[C@@H]3c3cccc(OCCO)c3)cc2)[C@]12C(=O)Nc1ccccc12
2. [N-]=[N+]=Nc1ccccc1C[C@]1(C(=O)NCC(O)CO)N=C(c2ccc(OCCCO)cc2)O[C@H]1c1ccccc1N=[N+]=[N-] (some centres not stated)
3. COC(=O)C(CC#Cc1ccc2c(c1)[C@]1(C(=O)N2)[C@H](C(=O)O)[C@H]2C(=O)O[C@H](c3ccccc3)[C@H](c3ccccc3)N2[C@@H]1c1ccc(O)cc1)C(=O)OC
4. COC(=O)c1c(CC[C@@H](CO)NC(=O)N[C@H](Cn2cc(Cc3ccccc3)nn2)C(C)C)oc(C(C)=O)c1C(=O)OC
5. CC(C)C[C@H]1NC(=O)[C@@]23C(=O)N[C@@H](Cc4ccccc4)C2[C@H](C)[C@@]2(C)O[C@H]2C3/C=C/C/C=C\CNC(=O)[C@H](Cc2ccccc2)NC1=O (some centres not stated)

Result:
1.51
-0.83
-0.328
1.51
0.717

Batch request: composite z-score for each of the following compounds.
1. C#CCN(CC=C(C)C)[C@H](CO)c1ccccc1
2. COC(=O)[C@@]1(Cc2ccc(OC)cc2)[C@H]2c3cc(C(=O)N(C)C)n(Cc4cccc5ccccc45)c3C[C@H]2CN1C(=O)c1ccccc1

Result:
0.295
-0.225

Batch request: composite z-score for each of the following compounds.
1. COCCOC(=O)N1C(=O)[C@@]2(c3ccccc31)[C@H](c1ccccc1OCCO)N1[C@H](c3ccccc3)[C@H](c3ccccc3)OC(=O)[C@H]1[C@@H]2C(=O)Nc1nc2ccccc2s1
2. COCCn1c(C(=O)N2CCCC2)cc2c1C[C@H]1CN(C(=O)c3ccccc3)[C@@](Cc3ccc(F)cc3)(C(=O)OC)[C@@H]21
3. COc1ccc(C(O)C2C=CC3C(=O)N(c4ccccc4)C(=O)C3N2Nc2ccc(C(C)C)cc2)cc1OCc1ccccc1 (configuration not stated)
4. CN(C)C(=O)[C@@]1(Cc2ccccc2CN=[N+]=[N-])N=C(c2ccc(OCCCO)cc2)O[C@H]1c1ccccc1
5. COc1ccc([C@H]2OC[C@@H]3CC4(CC=CC4)C(=O)N32)cc1
6. CCCCC(O)C1C=CC2C(=O)N(c3ccccc3)C(=O)C2N1Nc1ccccc1F (configuration not stated)

Result:
1.03
-0.703
0.254
1.34
0.848
-0.563

Batch request: composite z-score for each of the following compounds.
1. Cc1ccc(C(C)CC(O)C2C=CC3C(=O)N(C)C(=O)C3N2NC(=O)OC(C)(C)C)o1 (configuration not stated)
2. [N-]=[N+]=NCc1ccccc1C[C@]1(C(=O)N2CCOCC2)N=C(c2ccc(OCCCO)cc2)O[C@H]1c1ccccc1N=[N+]=[N-]

Result:
[0.48, 0.823]

Each recorded value in this set is attributed to PubChem BioAssay.
